# Tested on: M. tuberculosis H37Rv growth inhibition
# test.description: M. tuberculosis H37Rv growth inhibitors, H37Rv strain (AID 1626)
pIC50: −log10 of the molar value.
For each record, write down the corresponding pIC50.

Here's what some known entries look like.
compound	pIC50
O=C(COC(=O)c1sc2ccccc2c1Cl)NC1CCCCC1	4.90
Cc1ccc(C2=Nc3ccccc3SC(c3cccc([N+](=O)[O-])c3)C2)cc1 (configuration not stated)	5.43

Record pIC50 per entry; entries follow.
1. Cc1ccc(C(=O)Nc2nc(C)c(C(=O)Nc3ccc4c(c3)CCC4)s2)cc1
2. CCOC(=O)c1cc(COc2cc(Cl)cc(Cl)c2)on1
3. COc1cc(/C=C/C(=O)c2ccc(F)cc2)cc(OC)c1OC
4. CCOC(=O)CSc1nnc(-c2ccc(OC)cc2OC)o1
5. Cc1ccc(C(C(=O)Nc2ccc3c(c2)OCO3)N(C)C(=O)/C=C\c2ccc3c(c2)OCO3)cc1 (configuration not stated)
6. O=[N+]([O-])c1ccc(/C=N/n2c(CO)nc3ccccc32)s1
7. Cc1ccc(NC(=O)/C=C/c2ccc([N+](=O)[O-])s2)c(C)c1
8. CN1CCN(CCCNC(=O)c2ccc(/C=C3\Sc4ccccc4N(Cc4ccc(F)cc4)C3=O)cc2)CC1

OUTPUT:
5.57
5.52
5.31
5.91
4.34
6.28
5.75
5.20

The values you see were collected from PubChem BioAssay AID1626.
